READOUT_TYPE: glass transition temperature (°C)

>>> measured_result("*OS(=O)(=O)c1cc(S(=O)(=O)Oc2ccc(C3(c4ccc(*)cc4)CCCCC3)cc2)ccc1C (repeat unit)")
142.00
>>> measured_result("*CCCCCCOC(=O)OCCCCCCCCCCOC(=O)OCCCCCCn1c(=O)c2cc3c(=O)n(*)c(=O)c3cc2c1=O (repeat unit)")
-2.00
>>> measured_result("*c1ccc(Oc2ccc(-c3ccc(Oc4ccc(N5C(=O)c6ccc(Oc7ccc(C(c8ccc(Oc9ccc%10c(c9)C(=O)N(*)C%10=O)cc8)(C(F)(F)F)C(F)(F)F)cc7)cc6C5=O)cc4)cc3)cc2)cc1 (repeat unit)")
217.00

----------
Entries whose glass transition temperature is below 60 °C take yes (1); entries at or above 60 °C take no (0).

>>> discrete_label("*CC(CSC(C)C)O* (repeat unit)")
"yes (1)"
>>> discrete_label("*c1cccc(N2C(=O)c3ccc(Oc4ccc5ccc(Oc6ccc7c(c6)C(=O)N(*)C7=O)cc5c4)cc3C2=O)c1 (repeat unit)")
"no (0)"
>>> discrete_label("*CCN(CCOC(=O)c1cc(OCCC2CCN(c3ccc(S(=O)(=O)C(F)(F)C(F)(F)C(F)(F)C(F)(F)C(F)(F)C(F)(F)C(F)(F)C(F)(F)F)cc3)CC2)cc(C(=O)O*)c1)c1ccc(S(=O)(=O)C(F)(F)C(F)(F)C(F)(F)C(F)(F)C(F)(F)C(F)(F)C(F)(F)C(F)(F)F)cc1 (repeat unit)")
"no (0)"
>>> discrete_label("*CC(*)c1cc(Br)ccc1OCCC(C)C (repeat unit)")
"yes (1)"

----------
READOUT_TYPE: glass transition temperature (°C)

>>> measured_result("*c1ccc(Oc2ccc(N3C(=O)c4cccc(Oc5cccc6c5C(=O)N(*)C6=O)c4C3=O)cc2)cc1 (repeat unit)")
293.8
>>> measured_result("*C(=O)Nc1ccc(S(=O)(=O)c2ccc(NC(=O)c3ccc4c(c3)C(=O)N(c3cccc(P(=O)(c5ccccc5)c5cccc(N6C(=O)c7ccc(*)cc7C6=O)c5)c3)C4=O)cc2)cc1 (repeat unit)")
241.00
>>> measured_result("*[O][Zn][O]C(=O)c1ccccc1C(=O)OCCCCCOC(=O)NCCCCCCNC(=O)OCCCCCOC(=O)c1ccccc1C(*)=O (repeat unit)")
-4.30

----------
READOUT_TYPE: glass transition temperature (°C)

>>> measured_result("*Oc1ccc(Oc2ccc(/C=N/CCCCCCCCCC/N=C/c3ccc(*)cc3)cc2)cc1 (repeat unit)")
108.00
>>> measured_result("*c1ccc(Oc2ccc(C(=O)c3ccc(Oc4ccc(-c5c6c(c(*)c7ccccc57)C(=O)N(c5ccc(F)cc5)C6=O)cc4)cc3)cc2)cc1 (repeat unit)")
290.00
>>> measured_result("*CCOP(=O)(/N=N/c1ccc(CCOC(=O)c2cc(C(=O)OCCc3ccc(/N=N/P(=O)(O*)OC)cc3)cc(C(C)(C)C)c2)cc1)OC (repeat unit)")
84.00
>>> measured_result("*c1nc(C)nc(N(CCCCN(*)c2ccccc2)c2ccccc2)n1 (repeat unit)")
85.00
>>> measured_result("*CC(*)(F)C(=O)OCC(F)(F)F (repeat unit)")
124.00
>>> measured_result("*c1ccc2nc(*)cc(-c3ccccc3)c2c1 (repeat unit)")
415.00
>>> measured_result("*CCCCCCOC(=O)OCCCCCCOC(=O)OCCCCCCn1c(=O)c2cc3c(=O)n(*)c(=O)c3cc2c1=O (repeat unit)")
17.00
>>> measured_result("*Oc1ccc(/N=C/c2ccc(N(c3ccccc3)c3ccc(/C=N/c4ccc(*)cc4)cc3)cc2)cc1 (repeat unit)")
162.00

----------
Entries whose glass transition temperature is below 50 °C take true; entries at or above 50 °C take false.

>>> discrete_label("*c1ccc(Cc2ccc(N3C(=O)c4ccc([Si](C)(C)c5ccc([Si](C)(C)c6ccc7c(c6)C(=O)N(*)C7=O)cc5)cc4C3=O)cc2)cc1 (repeat unit)")
"false"
>>> discrete_label("*C1C=C(CCCCCC)C(*)S1 (repeat unit)")
"false"
>>> discrete_label("*OC(=O)C(C)NC(=O)CCCCCCCCCCC(=O)NC(C)C(=O)OC1COC2C(*)COC12 (repeat unit)")
"true"
>>> discrete_label("*Oc1c(C)cc(C(C)(C)c2cc(C)c(OC(=O)c3cccc(C(*)=O)c3)c(C)c2)cc1C (repeat unit)")
"false"
>>> discrete_label("*CC(*)C(=O)OCCCCCCCCOC(=O)c1ccc(OC(=O)c2ccc(C#N)cc2)cc1 (repeat unit)")
"true"
>>> discrete_label("*c1ccc(C(=O)c2cccc(-n3c(=O)c4cc5c(=O)n(*)c(=O)c5cc4c3=O)c2)cc1 (repeat unit)")
"false"
>>> discrete_label("*CC(*)CCCCCCCCCI (repeat unit)")
"true"

----------
READOUT_TYPE: glass transition temperature (°C)

>>> measured_result("*CCCCCCOC(=O)OCCCCCCCCCCOC(=O)OCCCCCCOc1ccc(C(=O)c2ccc(O*)cc2)cc1 (repeat unit)")
-13.00
>>> measured_result("*CC(CCCCCCOc1ccc(/N=N/c2ccc(OC)cc2)cc1)COC(=O)CCCCC(=O)O* (repeat unit)")
22.00
>>> measured_result("*c1ccc(Oc2ccc(N3C(=O)c4ccc(Oc5ccccc5Oc5ccc6c(c5)C(=O)N(*)C6=O)cc4C3=O)cc2)cc1 (repeat unit)")
212.00
>>> measured_result("*Oc1ccc(C2(c3ccc(OC(*)=O)cc3)c3cc(OC)ccc3-c3ccc([N+](=O)[O-])cc32)cc1 (repeat unit)")
294.00
>>> measured_result("*C(=O)Oc1ccc(C(c2ccc(OC(=O)c3ccc4c(c3)C(=O)N(c3c(C)cc(-c5cc(C)c(N6C(=O)c7ccc(*)cc7C6=O)c(C)c5)cc3C)C4=O)cc2)(C(F)(F)F)C(F)(F)F)cc1 (repeat unit)")
335.00
>>> measured_result("*c1c(C)cc(Cc2cc(C)c(N3C(=O)c4cccc(Oc5ccc(C(C)(C)c6ccc(Oc7cccc8c7C(=O)N(*)C8=O)cc6)cc5)c4C3=O)c(C)c2)cc1C (repeat unit)")
223.00

----------
The entries below are paired with their reported glass transition temperature.
READOUT_TYPE: glass transition temperature (°C)

>>> measured_result("*CC(CO)(CO)CO* (repeat unit)")
99.00
>>> measured_result("*CCCCCCCCNC(=O)c1cccc(C(=O)N*)c1 (repeat unit)")
110.00
>>> measured_result("*CC(O)COc1ccc(C(C)(C)c2ccc(OCC(O)COc3ccc(S(=O)(=O)c4ccc(O*)c(C)c4)cc3C)cc2)cc1 (repeat unit)")
117.50
>>> measured_result("*CCCCCCCCCCCCCCCCCCNC(=O)CCc1ccc(CCC(=O)N*)cc1 (repeat unit)")
65.00
>>> measured_result("*CC(CCCC)C(CCCC)COC(=O)c1ccc(C(=O)O*)cc1 (repeat unit)")
16.00
>>> measured_result("*CC(*)(Cl)C(=O)OCC (repeat unit) [Poly(ethyl a-chloroacrylate) ]")
92
>>> measured_result("*OC(=O)C(CC(C)C)NC(=O)CCCCC(=O)NC(CC(C)C)C(=O)OC1COC2C(*)COC12 (repeat unit)")
91.00
>>> measured_result("*Oc1cc(OC(=O)c2ccc(OCCC)cc2)c(OC(=O)CCCCCCCCCCCCCCC(*)=O)cc1OC(=O)c1ccc(OCCC)cc1 (repeat unit)")
18.00
>>> measured_result("*CC(*)(C)C(=O)OCCCCCCOc1cccc(C(=O)Oc2ccc(C#N)cc2)c1 (repeat unit)")
38.00
>>> measured_result("*c1ccc(Cc2ccc(N3C(=O)C4CCC5C(=O)N(*)C(=O)C5C4C3=O)cc2)cc1 (repeat unit)")
341.00
>>> measured_result("*Oc1ccc(C(C)(C)c2ccc(OC(=O)OC3C(C)(C)C(OC(*)=O)C3(C)C)cc2)cc1 (repeat unit)")
130.00
>>> measured_result("*CC(O)CN(C)S(=O)(=O)c1ccc(-c2ccc(S(=O)(=O)N(C)CC(O)COc3ccc(C(C)(C)c4ccc(O*)cc4)cc3)cc2)cc1 (repeat unit)")
101.00
>>> measured_result("*CC(*)(C)C(=O)Oc1ccc(/N=N/c2ccc([N+](=O)[O-])cc2)cc1 (repeat unit)")
145.00
>>> measured_result("*Oc1ccc(C(C)(C)c2ccc(OC(=O)c3ccc(Oc4ccc(C(*)=O)cc4)cc3)cc2)cc1 (repeat unit)")
220.00
>>> measured_result("*c1ccc2c(c1)C(=O)N(c1c(C)cc(-c3cc(C)c(N4C(=O)c5ccc(C(*)(C(F)(F)F)C(F)(F)F)cc5C4=O)c4ccccc34)c3ccccc13)C2=O (repeat unit)")
403.00
>>> measured_result("*CC(*)(C)C(=O)OC1CCCCC1C (repeat unit)")
85.00
>>> measured_result("*CC(CC)(CC)CS* (repeat unit)")
-36.2

----------
The entries below are paired with their reported glass transition temperature.
READOUT_TYPE: glass transition temperature (°C)

>>> measured_result("*Oc1ccc(C2(c3ccc(Oc4ccc(-c5ccc(NC(=O)c6cc(C(=O)Nc7ccc(-c8ccc(*)c(C(F)(F)F)c8)cc7)cc(C(C)(C)C)c6)cc5)cc4C(F)(F)F)cc3)c3ccccc3-c3ccccc32)cc1 (repeat unit)")
278.00
>>> measured_result("*Oc1c(C)cc(-c2cc(C)c(Oc3ccc(C(=O)c4ccc(*)cc4)cc3)c(CBr)c2)cc1CBr (repeat unit)")
158.17
>>> measured_result("*CCCCOC(=O)CCCCC(=O)OCCCCOC(=O)c1ccc(C(=O)O*)cc1 (repeat unit)")
-20.00
>>> measured_result("*/C(C)=C(/*)SCCCCCC (repeat unit)")
110.00
>>> measured_result("*C(=O)c1ccc2c(c1)C(=O)N(c1ccc(C(=O)Nc3cccc(N4C(=O)c5ccc(*)cc5C4=O)c3)cc1)C2=O (repeat unit)")
311.00
>>> measured_result("*O[Si](C)(C)c1cccc(C(F)(F)C(F)(F)C(F)(F)c2cccc([Si](*)(C)C)c2)c1 (repeat unit)")
-8.00
>>> measured_result("*CCCN(C)c1ccc(C(=O)c2ccc(N(*)C)cc2)cc1 (repeat unit)")
101.00
>>> measured_result("*CCOCCOCCOCCOc1ccc(C(=O)Nc2cc(NC(=O)c3ccc(O*)cc3)cc(-c3nc4ccccc4[nH]3)c2)cc1 (repeat unit)")
163.00
